# target.or.system: T1, human CXCR6 (human, UniProt O00574 1-342)
# T1 construct: also called hu-CXCR6; wild type human CXCR6
# T1 sequence (O00574 whole entry): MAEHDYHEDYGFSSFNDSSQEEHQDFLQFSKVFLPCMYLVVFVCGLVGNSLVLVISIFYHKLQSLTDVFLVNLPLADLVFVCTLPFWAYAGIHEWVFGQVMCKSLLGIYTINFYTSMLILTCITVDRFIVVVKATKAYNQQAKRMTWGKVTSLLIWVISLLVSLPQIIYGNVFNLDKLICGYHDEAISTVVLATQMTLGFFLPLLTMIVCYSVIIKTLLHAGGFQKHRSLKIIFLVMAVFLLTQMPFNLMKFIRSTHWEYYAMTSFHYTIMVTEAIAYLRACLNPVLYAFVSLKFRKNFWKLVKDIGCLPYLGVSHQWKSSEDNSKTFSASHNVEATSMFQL
# measurement.notes: screening on cells overexpressing CXCR6, one single concentration, yes/no
parameter.measured: binding result

Beacon2-G5 (antibody, V domains shown, Mouse-derived) VH: EVQLVESGGDLVKPGGSLKLSCAASGFTFSSYGMSWVRQTPDKRLEWVATISSRGSYTYYPDSVKGRLTISRENAKNTLSLQMSSLKSEDTAMYYCARRVFPYWFFDVWGAGTTVTVSS VL: DIVMTQSHKFMSTSVGDRVSITCKASQDVSTAVAWYQQKSGQSPKLLIYSASYRYTGVPDRFTGSGSGTDFTFTISSVQAEDLAVYYCQQHYTTPYTFGGGTKLEIK = binds
COXs-9D6 (antibody, V domains shown, Mouse-derived; tested at the screening stage) VH: EVHLVESGGGLVQPKGSLKLSCTASGFSFDTYAMNWVRQAPGKGLEWVARIRSKSKNYATYYADSVTDRFTISRDDSANILYLQMNNLKTEDTAIYYCLSQGSFDYWGQGTTLTVSS VL: DVVMTQTPLSLPVSLGDQASISCRSSQRIVHTDGNTYLYWYLQKPGQSPKLLIYRVSNRFSGVPDRFSGSGSGTDFILKISRVEAEDMGIYYCFQGTHFPYTFGGGTKLEIK = binds

The reported numbers originate from patent US20240239907A1.
